The measurements presented in this section are drawn from paper PMC8126837.

Measured koff of individual entries
target: SARS-CoV-2 receptor-binding domain (RBD), wild type (SARS-CoV-2, UniProt P0DTC2 331-527); experiment: BLI
measured_metric: koff (s⁻¹)

* WNb 67 (VHH) VHH: QVQLQESGGGLVQPGGSLRLSCAVSGFTLDYYAIGWFRQAPGKEREGVSCISSSGGSTNYADSVKGRFTISRDNATNTVYLQMNSLKPEDTAVYYCAAIAATYYGGSYYYQCPHYGMDYWGKGTQVTVSS | 0.000212
* WNb 36 (VHH) VHH: QVQLQESGGGLVQPGGSLRLSCAVSGFTLDYYAIGWFRQAPGKEREGVSCISNSGGNTKYADSVKGRFTTSVDNAQNTVYLLMNSLEPEDTAVYYCAAIAATYYSGTYYYQCPHYGMDYWGKGTQVTVSS | 0.000127
* WNb 2 (VHH) VHH: QVQLQESGGGLVQPGGSLRLSCAVSGFTLDYYAIGWFRQAPGKEREGVSCISSSGGNTKYADSVKGRFTASRDNAKNTFYLQMNSLKPEDTAVYYCAAIAATYYSGSYYFQCPHDGMDYWGKGTQVTVSS | 7.34e-05
* WNb 41 (VHH) VHH: QVQLQESGGGLVQPGGSLRLSCAVSGFTLDYYAIGWFRQAPGKEREGVSCISSSGGSTNYADSVKGRFTISRDNAKNTVYLQMNGLKPEDTAVYYCAAIAATYYSGSYYYQCPHDGMDYWGKGTQVTVSS | 0.000104
* WNb 15 (VHH) VHH: QVQLQESGGGLVQPGGSLRLSCAASGFTFSSYLMGWFRQVPGKGLEWVSGIYSDGGTYYADSVKGRFTISRDNAKNTVYLQMNSLKPEDTAVYYCATDRMEGSSWPERDFGSWGQGTQVTVSS | 3.05e-05
* WNb 10 (VHH) VHH: QVQLQESGGGLVQPGGSLRLSCAASGFTFRRYLMGWARQVPGKGLEWVSGIYSDGSTYYADSVKGRFTISRDNAKNTVYLQMNSLKPEDTAVYYCAKDRMDGSTWPERDFGSWGQGTQVTVSS | 9.64e-05
* WNb 50 (VHH) VHH: QVQLQESGGGLVQPGGSLRLSCAASGFTFSSYAMGWFRQVPGKGLEWVSGIYSDGSTYYADSVKGRFTISRDNAKNTVYLQMNSLKPEDTAVYYCAADRMAGSRWPERDFGSWGQGTQVTVSS | 0.00013
* WNb 53 (VHH) VHH: QVQLQESGGGLVQPGGSLRLSCAASGFTFSSYLMGWARQVPGKGLEWVAGIYSDGSTYYADSVKGRFIISRDNAKNTVYLQMNSLKPEDTAVYYCAKDRMEDSTWPERDFGSWGQGTQVTVSS | 0.00013
